Source of measurements: patent US20130296311A1

- Tested on: HCV 1b_Huh-Luc/Neo-ET cell line persistently expressing a bicistronic genotype 1b replicon in Huh 7 cells
- assay.details: HCV replicon assay (luciferase readout, 72 h)
- Format: cell-based, HCV genotype 1b
- condition.set: Hepatitis C virus, Huh-7, 72 h, read-out: Inhibition of HCV genotype 1b
pEC50: −log10 of the molar value.
# maps each entry to its pEC50
parameter: pEC50

compound | observed.measurement
O=C(N[C@@H](C(=O)N1CCC[C@H]1c1ncc(C#Cc2ccc(-c3ccc(-c4cnc([C@@H]5CCCN5C(=O)[C@H](NC(=O)C5CC5)c5ccccc5)[nH]4)cc3)cc2)[nH]1)c1ccccc1)C1CC1 [Compound 760] | > 9.00
COC(=O)NC(C(=O)N1CCC[C@H]1c1ncc(-c2ccc(C#Cc3ccc(-c4cnc([C@@H]5CCCN5C(=O)[C@H](NC(=O)OC)[C@H](C)O)[nH]4)cc3)cc2)[nH]1)[C@H](C)O (stereo partly drawn) [Compound 978] | 6.00 to 8.00
O=C(N[C@@H](C(=O)N1CCC[C@H]1c1ncc(-c2ccc(C#Cc3ccc(-c4cnc([C@@H]5CCCN5C(=O)[C@@H](c5ccccc5)N5CCCCC5)[nH]4)cc3)cc2)[nH]1)c1ccccc1)C1CC1 [Compound 208] | > 9.00
COC(=O)N[C@@H](CCC(N)=O)C(=O)N1CCC[C@H]1c1ncc(-c2ccc(C#Cc3ccc4nc([C@@H]5CCCN5C(=O)[C@H](CCC(N)=O)NC(=O)OC)[nH]c4c3)cc2)[nH]1 [Compound 1051] | 8.00 to 9.00
COC(=O)N[C@H](C(=O)N1CCC[C@H]1c1ncc(-c2ccc(C#Cc3ccc(-c4cnc([C@@H]5CCCN5C(=O)[C@@H](NC5CCOCC5)C(C)C)[nH]4)cc3)cc2)[nH]1)C(C)C [Compound 1001] | 8.00 to 9.00
CC(C)[C@@H](NC(=O)OC(C)(C)C)C(=O)N1CCC[C@H]1C(=O)NCCc1ccc(C#Cc2cnc([C@@H]3CCCN3C(=O)[C@H](NC(=O)OC(C)(C)C)C(C)C)[nH]2)cc1 [Compound 126] | 6.00 to 8.00
COC(=O)N[C@@H](C(=O)N1CCC[C@H]1c1ncc(-c2ccc(C#Cc3ccc(-c4cnc([C@@H]5CCCN5C(=O)[C@@H](c5ccccc5)N(C)C)[nH]4)cc3)cc2)[nH]1)c1ccccc1 [Compound 174] | > 9.00
COC(=O)N[C@H](C(=O)N1CCC[C@H]1c1ncc(-c2ccc(C#Cc3ccc(-c4cnc([C@@H]5CCCN5C(=O)[C@H](NC(=O)N5CCN(C)CC5)c5ccccc5)[nH]4)cc3)cc2)[nH]1)C(C)C [Compound 989] | > 9.00
CN1CCN(C(=O)N[C@@H](C(=O)N2CCC[C@H]2c2ncc(C#Cc3ccc(C#Cc4cnc([C@@H]5CCCN5C(=O)[C@H](NC(=O)N5CCN(C)CC5)c5ccccc5)[nH]4)cc3)[nH]2)c2ccccc2)CC1 [Compound 310] | 8.00 to 9.00
